system: spontaneous motor function in mice; assay: Inhibition of spontaneous motor function in mice, Winter and Flataker test (photoelectric method); format: in vivo; conditions: Mus musculus, po, read-out: ID50 p.o., Winter and Flataker test
Listing: ED50 of selected molecules
ENDPOINT: ED50

[
  {
    "MOLECULE": "CC1Cc2cc(S(=O)(=O)CC3CC3)cc(C(=O)NCC3CCCN3CC3=CCCCC3)c2O1.CS(=O)(=O)O (stereo not drawn)",
    "RECORDED RESULT": "17.3 mg/kg"
  },
  {
    "MOLECULE": "CCS(=O)(=O)c1cc2c(c(C(=O)NCC3CCCN3CC3CC3)c1)OC(C)C2.Cl (stereo not drawn)",
    "RECORDED RESULT": "31.5 mg/kg"
  },
  {
    "MOLECULE": "O=C(NCC1CCCN1CC1=CCCCC1)c1cc(Cl)cc2c1OCCC2.O=C(O)/C=C/C(=O)O (stereo not drawn)",
    "RECORDED RESULT": "20.9 mg/kg"
  }
]

Value source: patent US5006570A
